# Test system: SKOV3
# Experiment: Primary qHTS to identify gynecologic anti-cancer compounds using libraries of approved drugs and bioactive compounds (AID 1345084); also: nearly all actives have a fitted effect of over 55% in size
# Test conditions: Gynecologic cancer cell panel viability, ATPlite luminescence, 48 h; series mostly up to 57.5 µM
Records with an inconclusive call do not appear. Activity calls are given as the source filed them. Calls follow the shape of the dose curve; as a rule, active = well fitted cell-killing curve with a large enough effect; inconclusive = small, poorly fitted or top-dose-only effect, or effect the other way; inactive = flat fitted curve, though single readings scatter.
Metric name: outcome

Example entries begin here.
[[record]]
molecule = "CC(=O)OCC(=O)[C@@]12OC(C)(C)O[C@@H]1C[C@H]1[C@@H]3C[C@H](F)C4=CC(=O)C=C[C@]4(C)[C@@]3(F)[C@@H](O)C[C@@]12C"
metric_name = "outcome"
observed = "inactive"

[[record]]
molecule = "NC(=O)C(=O)N/N=C/c1ccc([N+](=O)[O-])o1"
metric_name = "outcome"
observed = "inactive"

[[record]]
molecule = "CC(=O)OCC(=O)[C@@]12N=C(C)O[C@@H]1C[C@H]1[C@@H]3CCC4=CC(=O)C=C[C@]4(C)[C@H]3[C@@H](O)C[C@@]12C"
metric_name = "outcome"
observed = "inactive"

[[record]]
molecule = "CC(=O)Oc1ccc2c(c1)CC[C@@H]1[C@@H]2CC[C@]2(C)[C@@H](O)CC[C@@H]12"
metric_name = "outcome"
observed = "inactive"


Would you kindly look at the next entry?
Data request: Could you tell me which outcome is on file for NC(CS)C(=O)O (stereo not given) ?
Data returned: inactive

* * *

# Experiment: Cell Viability - LYMP2-009 (AID 968);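 also: cells exposed to compound for 24 h at 37 °C; nearly all actives have a fitted effect of over 55% in size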
# Test conditions: LYMP2-009 lymphoblastoid cell viability; series mostly up to 92.2 µM
Results filed as inconclusive are left out. Calls of active or inactive are those of the source. The call rests on the fitted dose curve; in most records, active means well fitted cell-killing curve with a large enough effect; inconclusive means small, poorly fitted or top-dose-only effect; inactive means flat fitted curve, though single readings scatter.
Choose one outcome from this list and give only that: t (active), f (inactive)

Data request: Per the assay record, what outcome was assigned to `O=C(O)CCCCC(=O)O` ?
Data returned: f

Data request: Per the assay record, what outcome was assigned to `CC/C(=C(/CC)c1ccc(O)cc1)c1ccc(O)cc1` ?
Data returned: f

Data request: Per the assay record, what outcome was assigned to `Nc1ccc(C(=O)O)cc1` ?
Data returned: f

Data request: Per the assay record, what outcome was assigned to `COC1=CC(=O)C[C@@H](C)[C@]12Oc1c(Cl)c(OC)cc(OC)c1C2=O` ?
Data returned: f

Data request: Per the assay record, what outcome was assigned to `CC(C)(C)CC(C)(C)c1ccc(OCCOCC[N+](C)(C)Cc2ccccc2)cc1` ?
Data returned: t

Data request: Per the assay record, what outcome was assigned to `Oc1ccc(O)cc1` ?
Data returned: t

Data request: Per the assay record, what outcome was assigned to `CN(C)/N=N/c1nc[nH]c1C(N)=O` ?
Data returned: f

Data request: Per the assay record, what outcome was assigned to `CC(=O)Oc1ccc(C(c2ccc(OC(C)=O)cc2)c2ccccn2)cc1` ?
Data returned: f

Data request: Per the assay record, what outcome was assigned to `NC(=NCCCCCCN=C(N)/N=C(\N)Nc1ccc(Cl)cc1)/N=C(\N)Nc1ccc(Cl)cc1` ?
Data returned: t

Data request: Per the assay record, what outcome was assigned to `O=C1OC(c2ccc(O)cc2)(c2ccc(O)cc2)c2ccccc21` ?
Data returned: f

Data request: Per the assay record, what outcome was assigned to `C=C(CC)C(=O)c1ccc(OCC(=O)O)c(Cl)c1Cl` ?
Data returned: t

* * *

# Experiment: Cell Viability - Renal Proximal Tubule (AID 545);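 also: cells exposed to compound for 40 hours; 0% = DMSO only and -100% = 100 µM tamoxifen; nearly all actives have a fitted effect of over 40% in size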
# Test conditions: renal proximal tubule cells viability, primary cells of rat origin; at 91.7 µM (top of the series)
Results filed as inconclusive are left out.
Would you mind telling me the reported activity change, negative = cytotoxicity of each entry?
Give a bare numeral; the unit % is implied.

Data request: Could you tell me which activity change, negative = cytotoxicity is on file for `CC(=O)Oc1ccc(C(c2ccc(OC(C)=O)cc2)c2ccccn2)cc1` ?
Data returned: -2.53

Data request: Could you tell me which activity change, negative = cytotoxicity is on file for `C=CCc1ccc(O)c(OC)c1` ?
Data returned: 5.39

Data request: Could you tell me which activity change, negative = cytotoxicity is on file for `C=C(CC)C(=O)c1ccc(OCC(=O)O)c(Cl)c1Cl` ?
Data returned: -86.3

Data request: Could you tell me which activity change, negative = cytotoxicity is on file for `O=c1ccc2ccccc2o1` ?
Data returned: -6.1

Data request: Could you tell me which activity change, negative = cytotoxicity is on file for `NC(=NCCCCCCN=C(N)/N=C(\N)Nc1ccc(Cl)cc1)/N=C(\N)Nc1ccc(Cl)cc1` ?
Data returned: -102

Data request: Could you tell me which activity change, negative = cytotoxicity is on file for `CC(C)(C)CC(C)(C)c1ccc(OCCOCC[N+](C)(C)Cc2ccccc2)cc1` ?
Data returned: -90

Data request: Could you tell me which activity change, negative = cytotoxicity is on file for `O=C(O)CCCCC(=O)O` ?
Data returned: 1.76

Data request: Could you tell me which activity change, negative = cytotoxicity is on file for CC(O)C(=O)O (centres undefined) ?
Data returned: -2.48

Data request: Could you tell me which activity change, negative = cytotoxicity is on file for `Nc1ccc(C(=O)O)cc1` ?
Data returned: -7.22

* * *

# System: OV90
# Experiment: Primary qHTS to identify gynecologic anti-cancer compounds using libraries of approved drugs and bioactive compounds (AID 1345084); also: nearly all actives have a fitted effect of over 55% in size
# Test conditions: Gynecologic cancer cell panel viability, ATPlite luminescence, 48 h; series mostly up to 57.5 µM
Results filed as inconclusive are left out. Active and inactive are the calls of the source. Calls come from the whole dose curve; as a rule, active = well fitted cell-killing curve with a large enough effect; inconclusive = small, poorly fitted or top-dose-only effect, or effect the other way; inactive = flat fitted curve, though single readings scatter.
Choose one outcome from this list and give only that: True = active, False = inactive

Data request: Per the assay record, what outcome was assigned to `NC(=O)c1cc[n+](CC2=C(C(=O)[O-])N3C(=O)[C@@H](NC(=O)Cc4cccs4)[C@H]3SC2)cc1` ?
Data returned: False

Data request: Per the assay record, what outcome was assigned to `C[C@]12CCC(=O)C=C1CC[C@H]1[C@@H]3CC[C@](O)(C(=O)CO)[C@@]3(C)C[C@H](O)[C@@]12F` ?
Data returned: False

Data request: Per the assay record, what outcome was assigned to `Nc1nc2ncc(CNc3ccc(C(=O)N[C@@H](CCC(=O)O)C(=O)O)cc3)nc2c(=O)[nH]1` ?
Data returned: False

Data request: Per the assay record, what outcome was assigned to `COc1ccc(C2C(=O)c3ccccc3C2=O)cc1` ?
Data returned: False

Data request: Per the assay record, what outcome was assigned to `CC[C@@H](CO)NCCN[C@@H](CC)CO` ?
Data returned: False

Data request: Per the assay record, what outcome was assigned to CN1[C@@H]2CC[C@H]1CC(OC(=O)c1c[nH]c3ccccc13)C2 (stereo not given in full) ?
Data returned: False

Data request: Per the assay record, what outcome was assigned to `COc1ccc(CN2CCN(C(c3ccc(F)cc3)c3ccc(F)cc3)CC2)c(OC)c1OC` ?
Data returned: False

Data request: Per the assay record, what outcome was assigned to `Cc1onc(-c2c(Cl)cccc2Cl)c1C(=O)N[C@@H]1C(=O)N2[C@@H]1SC(C)(C)[C@@H]2C(=O)O` ?
Data returned: False

Data request: Per the assay record, what outcome was assigned to `CN(C(=O)CN(CCO)CC(=O)N(C)C(C)(C)Cc1ccccc1)C(C)(C)Cc1ccccc1` ?
Data returned: False

Data request: Per the assay record, what outcome was assigned to `CC(C)(C)NC(=O)[C@@H]1CN(Cc2cccnc2)CCN1C[C@@H](O)C[C@@H](Cc1ccccc1)C(=O)N[C@H]1c2ccccc2C[C@H]1O` ?
Data returned: False

Data request: Per the assay record, what outcome was assigned to `CCN1CCN(c2cc3c(cc2F)c(=O)c(C(=O)O)cn3C2CC2)CC1` ?
Data returned: False

Data request: Per the assay record, what outcome was assigned to `C[C@]12CC[C@@H]3c4ccc(O)cc4CC[C@H]3[C@@H]1C[C@@H](O)[C@@H]2O` ?
Data returned: False

Data request: Per the assay record, what outcome was assigned to `OCc1ccccc1O` ?
Data returned: False

Data request: Per the assay record, what outcome was assigned to `CN1CCN(C(c2ccccc2)c2ccccc2)CC1` ?
Data returned: False

Data request: Per the assay record, what outcome was assigned to `O=C1c2ccccc2C(=O)C1c1ccccc1` ?
Data returned: False

Data request: Per the assay record, what outcome was assigned to `CCCCCCC[N+](CC)(CC)CCCCc1ccc(Cl)cc1` ?
Data returned: True

Data request: Per the assay record, what outcome was assigned to `NC(=O)C(=O)N/N=C/c1ccc([N+](=O)[O-])o1` ?
Data returned: False

Data request: Per the assay record, what outcome was assigned to `C=C(CC)C(=O)c1ccc(OCC(=O)O)c(Cl)c1Cl` ?
Data returned: False

Data request: Per the assay record, what outcome was assigned to `OC(CCN1CCCCC1)(c1ccccc1)c1ccccc1` ?
Data returned: False

Data request: Per the assay record, what outcome was assigned to `C[C@H]1C[C@H]2[C@@H]3CCC4=CC(=O)C=C[C@]4(C)[C@@]3(Cl)[C@@H](O)C[C@]2(C)[C@@]1(O)C(=O)CO` ?
Data returned: False

Data request: Per the assay record, what outcome was assigned to `Cc1c(N(C)CS(=O)(=O)O)c(=O)n(-c2ccccc2)n1C` ?
Data returned: False

Data request: Per the assay record, what outcome was assigned to `CC(C)COC(=O)c1ccc(N)cc1` ?
Data returned: False

Data request: Per the assay record, what outcome was assigned to `CCOC(=O)c1cccc(N)c1` ?
Data returned: False

Data request: Per the assay record, what outcome was assigned to COC(=O)CCc1ccc(OCC(O)CNC(C)C)cc1 (stereo not given) ?
Data returned: False

Data request: Per the assay record, what outcome was assigned to `CNCC[C@@H](Oc1ccccc1C)c1ccccc1` ?
Data returned: False

Data request: Per the assay record, what outcome was assigned to `C[C@H](CCC(=O)O)[C@H]1CC[C@H]2[C@@H]3C(=O)C[C@@H]4CC(=O)CC[C@]4(C)[C@H]3CC(=O)[C@]12C` ?
Data returned: False

Data request: Per the assay record, what outcome was assigned to O=C(OCC(O)CO)c1ccccc1Nc1ccnc2cc(Cl)ccc12 (stereo not given) ?
Data returned: False

Data request: Per the assay record, what outcome was assigned to `CCN1CCCC1=O` ?
Data returned: False

Data request: Per the assay record, what outcome was assigned to `C=C1C[C@H]2[C@@H]3C=C(C)C4=CC(=O)CC[C@]4(C)[C@H]3CC[C@]2(C)[C@@]1(OC(C)=O)C(C)=O` ?
Data returned: False

Data request: Per the assay record, what outcome was assigned to `NC(CO)(CO)CO` ?
Data returned: False

Data request: Per the assay record, what outcome was assigned to `Oc1cc(O)c2c(c1)O[C@H](c1ccc(O)c(O)c1)[C@H](O)C2` ?
Data returned: False

Data request: Per the assay record, what outcome was assigned to `OC[C@@H](O)[C@@H](O[C@@H]1O[C@H](CO)[C@H](O)[C@H](O)[C@H]1O)[C@H](O)[C@@H](O)CO` ?
Data returned: False

Data request: Per the assay record, what outcome was assigned to `C=CCc1ccc(O)c(OC)c1` ?
Data returned: False

Data request: Per the assay record, what outcome was assigned to `O=C(O)CCCCC(=O)O` ?
Data returned: False

Data request: Per the assay record, what outcome was assigned to `COC1=CC(=O)C[C@@H](C)[C@]12Oc1c(Cl)c(OC)cc(OC)c1C2=O` ?
Data returned: False

Data request: Per the assay record, what outcome was assigned to `Cc1ccc(O)c2ncccc12` ?
Data returned: False

Data request: Per the assay record, what outcome was assigned to `Cc1c(C(C)C)c(=O)n(-c2ccccc2)n1C` ?
Data returned: False

Data request: Per the assay record, what outcome was assigned to CCC(C(=O)OCCN(CC)CC)c1ccccc1 (stereo not given) ?
Data returned: False

Data request: Per the assay record, what outcome was assigned to `CC/C(=C(/CC)c1ccc(O)cc1)c1ccc(O)cc1` ?
Data returned: False

Data request: Per the assay record, what outcome was assigned to `CCN1CCC[C@H]1CNC(=O)c1c(OC)ccc(Br)c1OC` ?
Data returned: False

Data request: Per the assay record, what outcome was assigned to `Nc1ccc(C(=O)O)cc1` ?
Data returned: False

Data request: Per the assay record, what outcome was assigned to `CCCN1CCCC[C@H]1C(=O)Nc1c(C)cccc1C` ?
Data returned: False

Data request: Per the assay record, what outcome was assigned to `CCCCc1nc(Cl)c(CO)n1Cc1ccc(-c2ccccc2-c2nn[nH]n2)cc1` ?
Data returned: False

Data request: Per the assay record, what outcome was assigned to CC(Cc1ccccc1)(NC(=O)CN)c1ccccc1 (stereo not given) ?
Data returned: False

Data request: Per the assay record, what outcome was assigned to CC(=O)CC(c1ccc([N+](=O)[O-])cc1)c1c(O)c2ccccc2oc1=O (stereo not given) ?
Data returned: False
